System: SW-620
test description: NCI tumour cell line growth inhibition, 48 h
Active and inactive are the calls of the source. No stated cut-off is given here; in the data, active = GI50 up to about 1.1 µM and inactive = higher.
reported property: GI50

Would you please look over these solved cases?
If you can, please state the reported GI50 value of `Brc1ccc2[nH]cc(-c3csc(-c4c[nH]c5ccc(Br)cc45)n3)c2c1` .
1.84 µM (inactive)

If you can, please state the reported GI50 value of `COc1ccc(C2=Nn3c(nc4sc5c(c4c3=O)CCCC5)SC2)cc1` .
> 100 µM (inactive)

Quick batch: GI50 for everything below.
1. O=C(O)c1cccc(S(=O)(=O)NN2C(=O)CSC2c2ccccc2Cl)c1 (configuration not stated)
2. CC(C)OC(=O)C(NC(=O)C(CC(=O)OCc1ccccc1)NC(=O)OCc1ccccc1)NC(=O)C1C(C)(C)CCC1(C)C (configuration not stated)

1. > 100 µM (inactive)
2. 3.23 µM (inactive)

Quick batch: GI50 for everything below.
1. Nc1nc(N)c2cc(Sc3ccc4ccccc4c3)ccc2n1
2. CCN(CC)CCn1c(=O)c2c(C)c3oc4ccccc4oc3c(C)c2c1=O
3. CN1C(=O)c2ccccc2NC(=O)c2cnn(C)c21
4. O=C1c2ccccc2C(=O)c2c1oc(=O)c1ccccc21
5. O=[N+]([O-])c1cccc(C2=NN(c3ccccc3)C[N+](c3ccc(Br)cc3)=N2)c1
6. O=C1Oc2ccccc2C(=O)/C1=C/N1C(=O)/C(=C/c2ccc3c(c2)OCO3)SC1=S
7. CCCCCCCCCCNC(=O)CCC(NC(=O)c1ccc(N(C)Cc2cnc3nc(N)nc(N)c3n2)cc1)C(=O)NCCCCCCCCCC (configuration not stated)
8. CC(C)C1C(=O)N2CCCC2C2(O)OC(NC(=O)C3C=C4c5cccc6[nH]cc(c56)CC4N(C)C3)(C(C)C)C(=O)N12 (configuration not stated)

0.729 µM (active)
> 100 µM (inactive)
> 100 µM (inactive)
2.08 µM (inactive)
> 100 µM (inactive)
22.8 µM (inactive)
3.13 µM (inactive)
30.1 µM (inactive)

----------
Tested on: Hs-578T
test description: NCI tumour cell line growth inhibition, 48 h
The source made the active and inactive calls. No stated cut-off is given here; in the data, active = GI50 up to about 1.1 µM and inactive = higher.
Form entry, call: pick from active, inactive

Some entries whose results are on file:
Recorded test outcome, item `COc1ccc(OC(=O)N2C/C(=C\c3ccccc3)C(=O)/C(=C/c3ccccc3)C2)cc1`
inactive

Recorded test outcome, item `CC(=O)CCC(=O)C(=[N+]=[N-])S(=O)(=O)c1ccccc1`
inactive

Recorded test outcome, item `NC(=O)N(O)c1cccc(Br)c1`
inactive

Recorded test outcome, item `C[N+](C)(C)CC(=O)N/N=C/c1ccncc1`
inactive

Recorded test outcome, item `COCN1C(=O)[C@@H]2CCCN2C(=O)c2cc(N)ccc21`
inactive

Recorded test outcome, item O=C(O)C1=CN(c2ccncc2)C(c2ccco2)=CC1c1ccccc1[N+](=O)[O-] (stereo not given)
inactive

Recorded test outcome, item CC(=O)NC(CSC1=C2NC(=O)\C=C/C=C\C=C/C(C)C(O)CC(=O)/C(C)=C\CC(O)/C=C\C(C)C(O)C(C)C=C(C)C(=O)c3c(O)c(C)cc(c3C1=O)C2=O)C(=O)O (stereo not given)
inactive

Recorded test outcome, item `Cc1cccc2c(N)c3cccc(C(=O)NCCCNCCN)c3nc12`
active

Recorded test outcome, item `COc1cc2c(cc1OCCOS(C)(=O)=O)N=C[C@@H]1CCCN1C2=O`
inactive

Attention now turns to another entry.
Recorded test outcome, item `COC(=O)C1=C(C)NC(C)=C(C(=O)OC)C1c1ccc(NO)cc1`
inactive

----------
Test system: SK-MEL-2
test description: NCI tumour cell line growth inhibition, 48 h
Activity calls are given as the source filed them. Rule as the data show it: active = GI50 up to about 1.1 µM and inactive = higher.
Form entry, call: pick from true (1) = active, false (0) = inactive

Recorded test outcome, item `Cc1nc(SCC(=O)Nc2ccccc2)c2sc(=S)n(-c3ccccc3)c2n1`
false (0)

Recorded test outcome, item `COC(=O)CN1c2nc(C#N)c(C#N)nc2N(CC(=O)OC)c2nc(C#N)c(C#N)nc21`
false (0)

Recorded test outcome, item `Cc1ccc(NC(=O)/C(Cc2cc(=O)oc3cc(O)ccc23)=N\NC(C)(C)C)cc1C`
false (0)

Recorded test outcome, item `N=C(N)NS(=O)(=O)c1ccc(NC(=O)c2ccc3nc4ccccc4c(O)c3c2)cc1`
false (0)

----------
Test system: NCI-H23
test description: NCI tumour cell line growth inhibition, 48 h
The source made the active and inactive calls. Cut-off read from the data, not from the text of the source: active = GI50 up to about 1.1 µM and inactive = higher.
reported property: GI50

Would you please look over these solved cases?
If you can, please state the reported GI50 value of `CCOc1ccc2c(c1)[n+]([O-])c(-c1ccc(Cl)cc1)c(N)[n+]2[O-]` .
> 100 µM (inactive)

If you can, please state the reported GI50 value of `CSc1ccc(C(=C=C=C(c2ccc(SC)s2)c2ccc(SC)s2)c2ccc(SC)s2)s1` .
> 10 µM (inactive)

If you can, please state the reported GI50 value of `COc1c(-c2nc3ccc(N4CCN(C)CC4)nc3[nH]2)cc(OC)c2c1nc(COC(C)=O)n2C` .
> 100 µM (inactive)

Quick batch: GI50 for everything below.
1. COC(C)(C)/C=C/c1[nH]c2ccccc2c1CC(=O)NCCc1cn(C(c2ccccc2)(c2ccccc2)c2ccccc2)cn1
2. CCCCCCN(CCCCCC)CCC(=O)c1ccc2cc(Br)c3ccccc3c2c1

1: 4.41 µM (inactive); 2: 81.8 µM (inactive)

----------
System: SR
test description: NCI tumour cell line growth inhibition, 48 h
Activity calls are given as the source filed them. Rule as the data show it: active = GI50 up to about 1.1 µM and inactive = higher.
reported property: GI50

Would you please look over these solved cases?
If you can, please state the reported GI50 value of COC(=O)C(Cc1ccccc1)NC(=O)C(CCC(=O)OCc1ccccc1)NC(=O)OC(C)(C)C (centres undefined) .
27.2 µM (inactive)

If you can, please state the reported GI50 value of Clc1cc2nc(C3CCCCO3)[nH]c2cc1Cl (centres undefined) .
4.49 µM (inactive)

If you can, please state the reported GI50 value of `CN(C)CCNc1ccc(NCC[N+](C)(C)Cc2ccc([N+](=O)[O-])cc2)c2c1C(=O)c1ccccc1C2=O` .
6.15 µM (inactive)

If you can, please state the reported GI50 value of `O=c1ccc2[n+]([O-])c3ccc(O)cc3oc-2c1` .
15.3 µM (inactive)

If you can, please state the reported GI50 value of `C1=C(c2ccccc2)CN(c2ccccc2)OC1` .
55.3 µM (inactive)

Quick batch: GI50 for everything below.
1. COC(CNC(=O)C(C)NC(=O)CCc1ccccc1)OC (centres undefined)
2. O=C(c1ccccc1)C1(Br)S(=O)(=O)OCCOS1(=O)=O

1. > 100 µM (inactive)
2. > 100 µM (inactive)

Quick batch: GI50 for everything below.
1. CCC(=O)Nc1nc2c(ncn2C2OC(COC(=O)CC)C(OC(=O)CC)C2OC(=O)CC)c(=O)[nH]1 (centres undefined)
2. CC(=O)NC(CSC1=C2NC(=O)\C=C/C=C\C=C/C(C)C(O)CC(=O)/C(C)=C\CC(O)/C=C\C(C)C(O)C(C)C=C(C)C(=O)c3c(O)c(C)cc(c3C1=O)C2=O)C(=O)O (centres undefined)

1: > 100 µM (inactive); 2: 33.5 µM (inactive)

----------
Kindly supply the reported GI50 values for the records listed here.
Test system: SNB-78
test description: NCI tumour cell line growth inhibition, 48 h
Activity calls are given as the source filed them. Rule as the data show it: active = GI50 up to about 1.1 µM and inactive = higher.

Would you please look over these solved cases?
If you can, please state the reported GI50 value of COc1ccc(N2C(=O)C3CC(c4ccc(Br)cc4)c4c([nH]c5ccccc45)C3C2=O)cc1 (stereo unspecified) .
14.8 µM (inactive)

If you can, please state the reported GI50 value of `O=CCCCC(Sc1ccccc1)Sc1ccccc1` .
15.3 µM (inactive)

If you can, please state the reported GI50 value of `C1=C(c2ccccc2)CN(c2ccccc2)OC1` .
> 100 µM (inactive)

If you can, please state the reported GI50 value of CCC(=O)Nc1nc2c(ncn2C2OC(COC(=O)CC)C(OC(=O)CC)C2OC(=O)CC)c(=O)[nH]1 (stereo unspecified) .
> 100 µM (inactive)

If you can, please state the reported GI50 value of `Cc1nc2ccccc2c(=O)[nH]1` .
> 100 µM (inactive)

If you can, please state the reported GI50 value of CCC(/C(=N/NC(=O)C[N+](C)(C)C)c1ccccc1)C1OC(=O)c2ccccc21 (stereo unspecified) .
> 100 µM (inactive)

If you can, please state the reported GI50 value of `CCOC(=O)/C(C#N)=C1\N[C@H](C(=O)OCC)CO1` .
> 100 µM (inactive)

If you can, please state the reported GI50 value of `Cc1nn2c(nc1=O)sc1ccc3ccccc3c12` .
> 100 µM (inactive)

If you can, please state the reported GI50 value of `O=C(O)CCCCCOc1cccnc1/C=N/NC1=NCCN1` .
> 100 µM (inactive)

If you can, please state the reported GI50 value of `CN(C)CCC(/C=C/c1ccccc1)=N\Nc1ccc(Cl)cc1Cl` .
13.5 µM (inactive)

# context switch: different molecule, same GI50
If you can, please state the reported GI50 value of `CCOC(=O)/N=c1\ss/c(=N\C(=S)N(C)C)n1-c1ccccc1` .
36.3 µM (inactive)
